Recorded Cmax, one value per entry.
Assay: In vivo pharmacokinetic evaluation in mouse
Parameters: species or system C57BL/6 female mice
Conditions: female, C57BL/6, mouse, plasma; mice, po, 5 mg/Kg
Protocol: In order to study the pharmacokinetic (PK) profile of test compounds in vivo, Sprague Dawley male rats or C57BL/6 female mice were dosed intravenously or after oral gavage. […] PK profile in rat was obtained from 3 animals per dosing route and mouse PK profile was determined from 3 animals for each time points. […]
Write down the numeric answer in ng/mL and omit the unit.

INSERT INTO results (compound, quantity, number) VALUES
  ('O=C(O)CN1C(=O)C2(NC(=O)N(Cc3cc(Cl)ccc3F)C2=O)c2cc(Cl)ccc21 (single isomer, unassigned; (+)) [(+)-Enantiomer, reference compound]', 'Cmax', 113);

As a next step, examine the compound that follows.
Reported Cmax for CN1C(=O)N(Cc2cc(Cl)ccc2F)C(=O)C12C(=O)N(CC(=O)O)c1ccc(Cl)cc12 (single isomer, unassigned; (+)) was 691
